# Test system: Tov112D
# Method: Primary qHTS to identify gynecologic anti-cancer compounds using libraries of approved drugs and bioactive compounds (AID 1345084); further: nearly all actives have a fitted effect of over 55% in size
# Details: Gynecologic cancer cell panel viability, ATPlite luminescence, 48 h; series mostly up to 57.5 µM
Inconclusive results are not listed. Active and inactive are the calls of the source. The call rests on the fitted dose curve; in most records, active means well fitted cell-killing curve with a large enough effect; inconclusive means small, poorly fitted or top-dose-only effect, or effect the other way; inactive means flat fitted curve, though single readings scatter. *1 amine or outer side, *2 acyl side, *3 side chain or, on linkers, in order; H or OH if unused. Where a SMILES comes first, the peptide text is derived from it. [ ]: non-standard residue; d: D form. X7 = O=C([C@@H](CC(O)CCl)O[*:1])[*:2]; aIle = CC[C@@H](C)[C@H](N)C(=O)O; NMeV = CN[C@H](C(=O)O)C(C)C; NMeA = CN[C@@H](C)C(=O)O; βAla = NCCC(=O)O
Outcomes: 1 (active), 0 (inactive)

Molecule	Tested System	Assigned Class
CC[C@@H](C)[C@@H]1NC(=O)[C@@H]2CCCN2C(=O)[C@@H](CC(O)CCl)OC(=O)CCNC(=O)[C@H](C)N(C)C(=O)[C@H](C(C)C)N(C)C1=O (stereo partly specified) (cyclo([NMeA][βAla][X7]P[aIle][NMeV]))	Tov112D	1
CCN1C[C@]2(COC)CC[C@H](O)[C@@]34C5C[C@@H]6[C@@H](OC)C[C@@](OC(C)=O)(C5[C@@H]6OC(C)=O)[C@H]([C@H](OC)C23)[C@@H]14 (stereo partly specified)	Tov112D	0
COC1CC(O[C@H]2CC[C@]3(C=O)C4CC[C@]5(C)[C@@H](C6=CC(=O)OC6)CC[C@]5(O)[C@@H]4CC[C@@H]3C2)OC(C)C1O[C@@H]1O[C@H](CO)[C@@H](O[C@@H]2O[C@H](CO)[C@@H](O)[C@H](O)[C@H]2O)[C@H](O)[C@H]1O (stereo partly specified)	Tov112D	1
O=C(NCCN1CCC2(CC1)C(=O)NCN2c1cccc(F)c1)c1ccc(F)c(F)c1	Tov112D	0
Cc1c(N2C(=O)[C@@H]3[C@H](O)CCN3C2=O)ccc(C#N)c1Cl	Tov112D	0
CCOC(=O)Nc1ccc(NCc2c(C)cc(C)cc2C)cc1N	Tov112D	0

----------
# Test system: Nanoluciferase (engineered Oplophorus gracilirostris luciferase)
# Method: Primary Nanoluciferase (NLuc) qHTS assay for identification of artifact compounds. (AID 1845222);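 further: NLuc secreted into diluted conditioned medium of S16 cells; 0% = DMSO and -100% = no enzyme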
# Details: NLuc-conditioned medium, Nano-Glo luminescence, 5 min; series mostly up to 54.1 µM
Calls of active or inactive are those of the source. The call rests on the fitted dose curve; in most records, active means well fitted inhibition curve with a large enough effect; inconclusive means small, poorly fitted or top-dose-only effect; inactive means flat fitted curve, though single readings scatter.
Measured Parameter: activity, negative = inhibition

Compound	Tested System	Measured Parameter	Endpoint Value
CC12CCC3C(C1)c1c(cc(O)c(C(=O)c4ccccc4)c1OC3(C)C)O2 (stereo unspecified)	Nanoluciferase (engineered Oplophorus gracilirostris luciferase)	activity, negative = inhibition	inactive
CO[C@H]1C[C@H](O[C@H]2CC[C@]3(C=O)[C@H]4CC[C@]5(C)[C@@H](C6=CC(=O)OC6)CC[C@]5(O)[C@@H]4CC[C@]3(O)C2)O[C@H](C)[C@H]1O	Nanoluciferase (engineered Oplophorus gracilirostris luciferase)	activity, negative = inhibition	inactive
C[C@H]1CC[C@@H]2[C@@H](C)[C@H]3[C@H](C[C@H]4[C@@H]5CC=C6CC(O[C@@H]7O[C@H](CO)[C@@H](O)[C@H](O[C@@H]8O[C@H](CO)[C@@H](O)[C@H](O)[C@H]8O)[C@@H]7O[C@@H]7O[C@@H](C)[C@H](O)[C@@H](O)[C@H]7O)CC[C@]6(C)[C@H]5CC[C@]34C)N2C1 (stereo partly specified)	Nanoluciferase (engineered Oplophorus gracilirostris luciferase)	activity, negative = inhibition	-0.992% [at 11.6 µM] (inactive)
C[C@]12CC[C@H](O)C[C@@]1(O)CC[C@@H]1[C@@H]2CC[C@]2(C)[C@@H](c3ccc(=O)oc3)CC[C@]12O	Nanoluciferase (engineered Oplophorus gracilirostris luciferase)	activity, negative = inhibition	inactive
OCc1nnc2n1-c1ccc(Cl)cc1C(c1ccccc1Cl)=NC2	Nanoluciferase (engineered Oplophorus gracilirostris luciferase)	activity, negative = inhibition	inactive
Cc1sc2c(c1C)C(c1ccc(Cl)cc1)=N[C@@H](CC(N)=O)c1nnc(C)n1-2	Nanoluciferase (engineered Oplophorus gracilirostris luciferase)	activity, negative = inhibition	inactive
